Would you kindly list Ki for each of these compounds?
Target Or Test System: Induced myeloid leukemia cell differentiation protein Mcl-1/BH3-interacting domain death agonist (Homo sapiens, UniProt Q07820)
Sequence (Q07820 whole entry, the tested form may be a part): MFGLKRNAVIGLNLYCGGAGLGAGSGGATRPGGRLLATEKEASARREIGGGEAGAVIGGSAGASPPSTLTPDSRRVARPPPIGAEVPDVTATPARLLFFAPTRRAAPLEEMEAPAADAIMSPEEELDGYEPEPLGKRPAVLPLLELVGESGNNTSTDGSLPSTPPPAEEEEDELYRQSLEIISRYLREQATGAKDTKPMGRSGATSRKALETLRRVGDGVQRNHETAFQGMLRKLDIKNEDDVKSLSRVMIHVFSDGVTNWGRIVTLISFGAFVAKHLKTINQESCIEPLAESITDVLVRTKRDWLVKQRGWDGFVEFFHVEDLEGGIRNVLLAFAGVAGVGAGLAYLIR
Sequence (P55957 whole entry, further chain, the tested form may be a part): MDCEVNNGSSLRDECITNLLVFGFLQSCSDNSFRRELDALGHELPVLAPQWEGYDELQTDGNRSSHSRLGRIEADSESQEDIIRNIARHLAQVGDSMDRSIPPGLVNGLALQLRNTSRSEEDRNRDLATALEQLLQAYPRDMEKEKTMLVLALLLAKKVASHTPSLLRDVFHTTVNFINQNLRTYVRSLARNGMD
Assay Comment: Inhibition of His-tagged MCL1 (unknown origin)/5-carboxyfluorescein-labeled Bid (unknown origin) protein protein interaction after 1 hr by fluorescence polarization assay

The following compounds have reported results that may help.
[[record]]
compound = "CC(C)=CCCC1=CCC(C(=O)O)C(c2ccccc2)C1 (racemic)"
reported_value = "> 33 µM"

[[record]]
compound = "COC1=C(OC)C(=O)C2=C(O[C@@H](c3ccccc3)CC2=O)C1=O"
reported_value = "> 33 µM"

[[record]]
compound = "COC1=C(O)C(=O)/C(=C(\\O)[C@@H]2CC=C(CCC=C(C)C)C[C@H]2c2ccccc2)C(=O)C1=O"
reported_value = "2.4 µM"

[[record]]
compound = "COC1=C(O)C(=O)/C(=C(\\O)C2CC=C(CCC=C(C)C)CC2c2ccccc2)C(=O)C1=O (racemic)"
reported_value = "3.1 µM"

[[record]]
compound = "COC1=C(O)C(=O)/C(=C(\\O)[C@H]2CC=C(CCC=C(C)C)C[C@@H]2c2ccccc2)C(=O)C1=O"
reported_value = "7.4 µM"


Value sought for every listed compound: Ki.
1. CC(=O)C1CC(CCC=C(C)C)=CCC1c1ccccc1 (racemic)
2. COc1cc(/C=C/c2ccccc2)oc(=O)c1 [DESMETHOXYYANGONIN]
3. COc1c(O)c2c(c(O)c1OC)C(=O)C[C@H](c1ccccc1)O2
4. CC(=O)C1CC=C(CCC=C(C)C)CC1c1ccccc1 (racemic)

-- reply
1. > 33 µM
2. > 33 µM
3. > 33 µM
4. > 33 µM

----------
Would you kindly list Ki for each of these compounds?
Target Or Test System: Bcl-xL/BAK (Homo sapiens)
Sequence (Q07817 whole entry): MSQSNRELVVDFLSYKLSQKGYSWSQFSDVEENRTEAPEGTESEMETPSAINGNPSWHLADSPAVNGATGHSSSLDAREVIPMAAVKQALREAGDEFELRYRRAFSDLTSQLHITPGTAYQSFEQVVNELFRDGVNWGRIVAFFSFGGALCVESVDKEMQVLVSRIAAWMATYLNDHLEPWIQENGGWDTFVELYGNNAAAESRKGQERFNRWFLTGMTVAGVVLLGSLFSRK
Sequence (Q16611 whole entry, further chain): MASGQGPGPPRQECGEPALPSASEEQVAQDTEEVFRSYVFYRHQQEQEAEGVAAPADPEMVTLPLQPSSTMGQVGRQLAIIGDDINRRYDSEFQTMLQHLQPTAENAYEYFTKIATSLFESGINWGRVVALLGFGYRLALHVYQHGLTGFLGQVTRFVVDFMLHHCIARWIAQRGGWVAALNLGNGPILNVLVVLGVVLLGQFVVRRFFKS
Assay Comment: Inhibition of His-tagged Bcl-xL (unknown origin)/5-carboxyfluorescein-labeled Bak (unknown origin) protein protein interaction after 1 hr by fluorescence polarization assay

[[record]]
compound = "CC(=O)C1CC(CCC=C(C)C)=CCC1c1ccccc1 (racemic)"
observable = "Ki"
reported_value = "> 23 µM"

[[record]]
compound = "COC1=C(O)C(=O)/C(=C(\\O)[C@H]2CC=C(CCC=C(C)C)C[C@@H]2c2ccccc2)C(=O)C1=O"
observable = "Ki"
reported_value = "> 23 µM"

[[record]]
compound = "COc1cc(/C=C/c2ccccc2)oc(=O)c1"
observable = "Ki"
reported_value = "> 23 µM"


Value sought for every listed compound: Ki.
1. CC(C)=CCC[C@H](C)[C@@H]1C=C[C@]2(C(=O)O)[C@@H](CC(C)=C[C@H]2/C=C(\C)C2CCC(C(=O)O)CC2)C1 (stereo not given in full)
2. COC1=C(OC)C(=O)C2=C(O[C@@H](c3ccccc3)CC2=O)C1=O

-- reply
["2.6 µM", "> 23 µM"]

Value sought for every listed compound: Ki.
1. COC1=C(O)C(=O)/C(=C(\O)C2CC=C(CCC=C(C)C)CC2c2ccccc2)C(=O)C1=O (racemic)
2. CC(C)=CCCC1=CCC(C(=O)O)C(c2ccccc2)C1 (racemic)
3. COC1=C(O)C(=O)/C(=C(\O)[C@@H]2CC=C(CCC=C(C)C)C[C@H]2c2ccccc2)C(=O)C1=O
4. CC(=O)C1CC=C(CCC=C(C)C)CC1c1ccccc1 (racemic)
5. COc1c(O)c2c(c(O)c1OC)C(=O)C[C@H](c1ccccc1)O2

-- reply
1: 17.5 µM; 2: > 23 µM; 3: 4.8 µM; 4: > 23 µM; 5: > 23 µM
